EXPERIMENT_DESCRIPTION: decreased DLD-1 cellular survival, CellTiter-Glo luminescent readout, NPC compound collection, primary HTS (AID 1117346)
CONDITION_LABEL: DLD-1 viability, CellTiter-Glo luminescence; at 20 µM (top of the series)
READOUT_NAME: viability decrease (inhibition) (%)
All answers are understood in %, so give the number only.

Q. Indicate its recorded viability decrease (inhibition); the molecule in question is `CCCc1ncc(C(=O)O)s1`
A. -6.8

Q. Indicate its recorded viability decrease (inhibition); the molecule in question is `O=c1[nH]c2ccccc2c(=O)n1CCCl`
A. 20.2

Q. Indicate its recorded viability decrease (inhibition); the molecule in question is `Cc1ccc2c(Br)cc(Br)c(O)c2n1`
A. 93.3

Q. Indicate its recorded viability decrease (inhibition); the molecule in question is CCCC(O)C(CC)CO (stereo not drawn)
A. 2.4

Q. Indicate its recorded viability decrease (inhibition); the molecule in question is `C[C@@H]1CCN(C(=O)[C@H](CCCN=C(N)N)NS(=O)(=O)c2cccc3c2NC[C@H](C)C3)[C@@H](C(=O)O)C1`
A. 0.9

Q. Indicate its recorded viability decrease (inhibition); the molecule in question is `CC(=O)CCCCn1c(=O)c2c(ncn2C)n(C)c1=O`
A. 10.8

Q. Indicate its recorded viability decrease (inhibition); the molecule in question is `O=C(O)c1ccccc1S`
A. -3.4

Q. Indicate its recorded viability decrease (inhibition); the molecule in question is `Cn1c(=O)c2[nH]c(Br)nc2n(C)c1=O`
A. -0.15

Q. Indicate its recorded viability decrease (inhibition); the molecule in question is CC1CN(c2cc3c(cc2F)c(=O)c(C(=O)O)cn3-c2ccc(F)cc2F)CCN1 (stereo not drawn)
A. -0.2

Q. Indicate its recorded viability decrease (inhibition); the molecule in question is `COc1cc([C@@H]2c3cc4c(cc3[C@H](O)[C@H]3COC(=O)[C@H]23)OCO4)cc(OC)c1OC`
A. 64

Q. Indicate its recorded viability decrease (inhibition); the molecule in question is `CN1CCC[C@@H]1c1cccnc1`
A. -23.3

Q. Indicate its recorded viability decrease (inhibition); the molecule in question is Cc1ccccc1C(=O)Nc1ccc(C(=O)N2CCCC(N(C)C)c3ccccc32)cc1 (stereo not drawn)
A. 59

Q. Indicate its recorded viability decrease (inhibition); the molecule in question is `COc1cc2[nH]c(=O)[nH]c(=O)c2cc1OC`
A. 0.05

Q. Indicate its recorded viability decrease (inhibition); the molecule in question is COc1ccccc1OCCNCC(O)COc1cccc2[nH]c3ccccc3c12 (stereo not drawn)
A. 90.5

Q. Indicate its recorded viability decrease (inhibition); the molecule in question is `CCOC(=O)[C@H](CCc1ccccc1)N[C@H]1CCCN2CCC[C@@H](C(=O)O)N2C1=O`
A. -2.1

Q. Indicate its recorded viability decrease (inhibition); the molecule in question is Cc1ccc2c(n1)Oc1ccc(C(C)C(=O)OCC(=O)N(C)C)cc1C2 (stereo not drawn)
A. -1.1

Q. Indicate its recorded viability decrease (inhibition); the molecule in question is N#C/C(=C1\SCC(c2ccccc2Cl)S1)n1ccnc1 (stereo not drawn)
A. 35.2

Q. Indicate its recorded viability decrease (inhibition); the molecule in question is `OCCN1C[C@H](O)[C@@H](O)[C@H](O)[C@H]1CO`
A. 0.1

Q. Indicate its recorded viability decrease (inhibition); the molecule in question is `O=C(/C=C/c1ccccc1)NCCO`
A. -16.4

Q. Indicate its recorded viability decrease (inhibition); the molecule in question is `COc1cc([C@@H]2c3cc4c(cc3[C@@H](O[C@@H]3O[C@@H]5CO[C@@H](C)O[C@@H]5[C@H](O)[C@@H]3O)[C@H]3COC(=O)[C@H]23)OCO4)cc(OC)c1O`
A. 49.6

Q. Indicate its recorded viability decrease (inhibition); the molecule in question is `C[C@]12CCC(=O)C=C1CC[C@@H]1[C@@H]2[C@@H](O)C[C@@]2(C)[C@H]1CC[C@]2(O)C(=O)CO`
A. -6.7

Q. Indicate its recorded viability decrease (inhibition); the molecule in question is `COC(=O)c1cc(S(C)(=O)=O)ccc1OC`
A. -1.9

Q. Indicate its recorded viability decrease (inhibition); the molecule in question is CC(C)CCCC(C)CCCC(C)CCCCC(C)CCCC(C)CCCC(C)C (stereo not drawn)
A. -26.5
